Every entry's value here was drawn from ChEMBL document CHEMBL2440067.

- measurementProtocol: Selectivity index, ratio of IC50 for rat L6 cells to IC50 for blood stream form of Trypanosoma brucei rhodesiense STIB 900
- Type: toxicity, cell-based
- experimentalSetup: read-out: Ratio IC50
Catalogue of selectivity ratio readings, one per entry.

Below are worked cases with known answers.
Using the record for Cl.Cl.O=[N+]([O-])c1ncn(CCCN2CCN(c3ncccn3)CC2)n1 , report its selectivity ratio.
5.2

// same read-out, input: Cl.O=C(C1CC1)N1CCN(CCCn2cnc([N+](=O)[O-])n2)CC1
13

Moving on to the next compound: COc1ccc(N2CCN(CCCn3cnc([N+](=O)[O-])n3)CC2)cc1.Cl.Cl
3.5

Same read-out for Cl.Cl.Cl.Cl.O=[N+]([O-])c1nccn1CCCN1CCN(Cc2ccc(Cl)c(Cl)c2)CC1 ?
7.4

The record that follows has no selectivity ratio shown yet.
Suppose we examine the compound Cl.Cl.Cl.Cl.O=[N+]([O-])c1ncn(CCCN2CCN(Cc3ccc(Cl)c(Cl)c3)CC2)n1 ; what selectivity ratio value has been reported?
42.9

###

- Tested on: Trypanosoma cruzi
- measurementProtocol: Ratio of banznidazole IC50 to compound IC50 for Trypanosoma cruzi Tulahuen C4 amastigotes
- Type: functional
Listing of recorded Ratio IC50 by entry.

Example entries and their recorded answers appear below.
Please report the recorded Ratio IC50 for O=[N+]([O-])c1nccn1CCCNc1nc2ccccc2s1 .
0.4

What about O=[N+]([O-])c1nccn1CCCCNc1nc2ccc(Cl)cc2s1 ?
1.2

Same thing, different compound: Cl.Cl.O=[N+]([O-])c1ncn(CCCN2CCN(c3ccc(C(F)(F)F)cc3)CC2)n1
39.2

Field entry: Cl.Cl.O=[N+]([O-])c1ncn(CCCN2CCN(c3ncccn3)CC2)n1
0.9

***
Any idea what its Ratio IC50 is? The compound is Cl.Cl.Cl.Cl.O=[N+]([O-])c1ncn(CCCN2CCN(Cc3ccc(Cl)c(Cl)c3)CC2)n1
7.1

Another compound to check: COc1ccc(N2CCN(CCCn3ccnc3[N+](=O)[O-])CC2)cc1.Cl.Cl
0.1

###

- System: Leishmania donovani
- measurementProtocol: Antimicrobial activity against Leishmania donovani MHOM-ET-67/L82 amastigotes after 72 hrs by Alamar blue assay
- Type: functional, organism-based
- experimentalSetup: MHOM-ET-67/L82, 72 h
readoutLabel: IC50

Entry O=[N+]([O-])c1ncn(CCCNc2nc3ccccc3s2)n1 has what IC50?
20 µM

Item: O=[N+]([O-])c1ncn(CCCN2CCN(c3ccncc3)CC2)n1
> 315 µM

Also, COc1ccc(N2CCN(CCCn3cnc([N+](=O)[O-])n3)CC2)cc1.Cl.Cl please.
> 239 µM

New cases:
GET /values?readout=IC50&item= Cl.O=C(C1CC1)N1CCN(CCCn2cnc([N+](=O)[O-])n2)CC1
> 290 µM
